// provenance: PubChem BioAssay (NCATS)

# TARGET_OR_SYSTEM: Tumor necrosis factor (Homo sapiens) (UniProt P01375)
# Sequence (P01375 whole entry, looked up): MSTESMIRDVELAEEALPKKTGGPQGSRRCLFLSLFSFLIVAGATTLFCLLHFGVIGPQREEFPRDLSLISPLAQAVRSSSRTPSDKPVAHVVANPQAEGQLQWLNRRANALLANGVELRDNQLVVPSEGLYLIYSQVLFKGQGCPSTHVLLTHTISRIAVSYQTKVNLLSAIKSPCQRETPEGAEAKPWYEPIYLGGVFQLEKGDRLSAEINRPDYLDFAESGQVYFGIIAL
# PROCEDURE_SUMMARY: qHTS assay to identify small molecules that stimulate Tumor Necrosis Factor-alpha (TNF-alpha) secretion (AID 651757)
# TEST_CONTEXT: Human cells, HTRF 665/615 ratio; series mostly up to 92.2 µM
Results filed as inconclusive are left out. Calls of active or inactive are those of the source. Calls come from the whole dose curve; as a rule, active = well fitted curve in the direction sought with a large enough effect in the signal ratio; inconclusive = small, poorly fitted or top-dose-only effect, or a change in a side signal; inactive = no such curve, though single readings can be large or run the other way; the % refers to the signal ratio.
READOUT_KIND: outcome

1. O=NO
inactive
2. CCCN(CCC)C(=O)SCC
inactive
3. O=[N+]([O-])c1cccc(Cl)c1Cl
inactive
4. CC1=C2[C@H](/C=C(\C)C(=O)O)CC[C@@H](C)[C@H]2CC1
inactive
5. O=C(O)c1ccc(O)cc1O
inactive
6. C=C(C)C1CC=C(C)C(O)C1 (stereo unspecified)
inactive
7. COC(=O)c1ccc(C)cc1
inactive
8. Clc1cc(Cl)c(Cl)cc1Cl
inactive
9. Clc1cc(Cl)c(Cl)c(Cl)c1Cl
inactive
10. C=CC(=C)CCC=C(C)C
inactive
11. c1ccccc1
inactive
12. CCCCC(CC)CN (stereo unspecified)
inactive
13. c1ccc2c(c1)[nH]c1ccccc12
inactive
14. Cc1ccc([N+](=O)[O-])cc1N
inactive
15. Nc1ccc(Cl)cc1Cl
inactive
16. C1OCOCO1
inactive
17. CN(C)CCCCCCN(C)C
inactive
18. CC(C)=CCCC(C)CCO (stereo unspecified)
inactive
19. C=CCc1ccc(OC)c(OC)c1
inactive
20. C=CC(=O)OCCOCCOCCOCCOC(=O)C=C
inactive
21. COc1c2ccoc2cc2oc(=O)ccc12
inactive
22. Cc1c(N=C=O)cccc1N=C=O
inactive
23. CCC(O)OC(O)CC (stereo unspecified)
inactive
24. COC(=O)c1ccc(C=O)cc1
inactive
25. CC12CCC(CC1=O)C2(C)C (stereo unspecified)
inactive
26. CC1=CC(C)(C)Nc2ccccc21
inactive
